The measurements presented in this section are drawn from patent US10144715B2.

Target: LXR β LBD protein (Homo sapiens (Human))
Sequence (P55055 222-460 limits assumed): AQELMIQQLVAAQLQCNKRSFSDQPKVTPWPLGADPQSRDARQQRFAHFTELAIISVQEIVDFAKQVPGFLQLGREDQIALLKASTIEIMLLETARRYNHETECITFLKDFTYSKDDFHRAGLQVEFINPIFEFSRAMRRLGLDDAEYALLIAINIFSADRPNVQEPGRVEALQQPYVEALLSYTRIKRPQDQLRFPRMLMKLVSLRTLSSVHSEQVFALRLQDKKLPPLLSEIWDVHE
Assay: biochemical
Type: binding
As shown below, each of these molecules has a reported pKi value.
Reminder that pKi means the negative base-10 logarithm of the concentration expressed in mol/L.

molecule	numeric-result
CC(C)[C@@H]1CN(c2ccc(F)c(S(C)(=O)=O)c2)CCN1c1ncc(CN(C)CCCO)c(C(F)(F)F)n1 [15-9]	6.84

Name the recorded pKi of the molecule listed here: CC(C)[C@H]1CN(c2cccc(S(C)(=O)=O)c2)CCN1C(=O)OC(C)(C)C [2-2] 5.72

Find the measured pKi of C[C@@H](c1ccc(C(F)(F)F)cc1)N1CCN(c2cccc(S(C)(=O)=O)c2)C[C@@H]1c1ccccc1 [46-16] and report it. 6.30

Identify measured pKi associated with CC(C)[C@@H]1CN(c2ccc(F)c(S(C)(=O)=O)c2)CCN1c1ncc(C(=O)N(C)CCO)c(C(F)(F)F)n1 [17-7] 6.29

Return pKi (reported value) for this molecule: Cc1nc(N2CCN(c3ccc(F)c(S(C)(=O)=O)c3)C[C@H]2C(C)C)ncc1CO [11-14] 6.29

Answer with the recorded pKi for the molecule listed here: C[C@](O)(c1ccc(CN2CCN(c3cccc(S(C)(=O)=O)c3)C[C@H]2c2ccccc2)cc1)C(F)(F)F [46-29] 5.73

Let me know recorded pKi for CC(C)[C@H]1CN(c2cccc(S(C)(=O)=O)c2)CCN1C[C@H]1CC[C@@H](C(F)(F)F)OC1 (single isomer, unassigned) [Cpd No 49-5] , thanks. 7.15

----------
Target: LXR α LBD protein (Homo sapiens (Human), UniProt Q13133)
Sequence (Q13133 209-447): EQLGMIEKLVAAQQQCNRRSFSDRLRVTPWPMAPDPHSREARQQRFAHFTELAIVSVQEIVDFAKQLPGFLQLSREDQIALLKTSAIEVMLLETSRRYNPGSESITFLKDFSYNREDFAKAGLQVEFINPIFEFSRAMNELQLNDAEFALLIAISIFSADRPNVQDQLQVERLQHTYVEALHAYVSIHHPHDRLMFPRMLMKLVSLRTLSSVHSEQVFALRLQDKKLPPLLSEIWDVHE
Experiment: Human LXRα coactivator recruitment FRET assay, agonist mode
Assay type: biochemical
Conditions: agonist mode
recorded-metric: pEC50
Reminder that pEC50 is minus the log10 of a molar concentration.

The cases that follow already have their pEC50 on record.
compound	pEC50
CC(C)[C@@H]1CN(c2ccc(F)c(S(C)(=O)=O)c2Cl)CCN1c1ncc(Cl)c(C2CC2)n1	6.57
COC(=O)c1ccc(N2CCN(C(=O)OC(C)(C)C)C(c3ccccc3)C2)cc1S(C)(=O)=O (stereo not shown)	4.46
CS(=O)(=O)c1cccc(N2CCN(Cc3ccc(OC(F)F)cc3)[C@@H](c3ccccc3)C2)c1	4.76
CC(C)[C@@H]1CN(c2cccc(S(C)(=O)=O)c2)CCN1c1ccc(C(F)(F)F)cn1	7.89
CS(=O)(=O)c1cccc(N2CCN(Cc3ccc(C(F)(F)F)c(Cl)c3)[C@H](Cc3ccccc3)C2)c1	5.59

Recall and state the measured pEC50 for `CC1(C)CCC(CN2CCN(c3cccc(S(C)(=O)=O)c3)C[C@H]2c2ccccc2)CC1` . 5.28

Look up pEC50 of CS(=O)(=O)c1cccc(N2CCN(Cc3ccc(C(F)(F)F)c(F)c3)[C@@H](c3ccccc3)C2)c1 (single isomer, unassigned) and report it. 5.54

Provide one value: measured pEC50 of `CC(C)[C@@H]1CN(c2cccc(S(C)(=O)=O)c2)CCN1c1ccnc(C(F)(F)F)n1` 6.53

State, in one line, measured pEC50 of `CC(C)[C@@H]1CN(c2ccc(C(N)=O)c(S(C)(=O)=O)c2)CCN1C(=O)OC(C)(C)C` 4.84

----------
pKi for assorted molecules
Molecular target: UniProtKB P55055
Assay: biochemical
Format: binding
Settings: read-out: LXRβ Binding Ki
Just so you know, pKi here is -log10 of the concentration in molar units; reply with that number alone.

Consider the reported pKi for these molecules:
molecule	study-target	numeric-result
CS(=O)(=O)c1cccc(N2CCN(CC3CCN(CC(F)(F)F)CC3)[C@@H](c3ccccc3Cl)C2)c1 (single isomer, unassigned)	UniProtKB P55055	7.17
CC(C)[C@H]1CN(c2ccc(CO)c(S(C)(=O)=O)c2)CCN1C[C@H]1CC[C@H](C(F)(F)F)OC1 (single isomer, unassigned)	UniProtKB P55055	7.64
CC(C)[C@@H]1CN(c2ccc(F)c(S(C)(=O)=O)c2)CCN1c1ncc(C(O)C(F)(F)F)cn1 (some centres unmarked)	UniProtKB P55055	7.04
CC(C)[C@@H]1CN(c2cc(S(C)(=O)=O)c(CO)cc2F)CCN1c1ncc(C(N)=O)c(C(F)(F)F)n1	UniProtKB P55055	6.72
CC(C)[C@@H]1CN(c2cc(S(C)(=O)=O)c(C(N)=O)cc2Cl)CCN1c1nccc(C(F)(F)F)n1	UniProtKB P55055	5.79

Provide one value: measured pKi of `Cc1nc(N2CCN(c3ccc(F)c(S(C)(=O)=O)c3)C[C@H]2C(C)C)ncc1C(N)=O` 6.21

Answer with reported pKi of `CCN(CCCO)C(=O)c1cnc(N2CCN(c3ccc(F)c(S(C)(=O)=O)c3)C[C@H]2C(C)C)nc1C(F)(F)F` 6.44

// fetch pKi given entry CC(C)[C@@H]1CN(c2ccc(F)c(S(C)(=O)=O)c2)CCN1c1ccc(C(C)(O)C(F)(F)F)cn1 (some centres unmarked) 7.28

Look up pKi of `Cc1nc(N2CCN(c3cccc(S(C)(=O)=O)c3)C[C@H]2C(C)C)ccc1C(F)(F)F` and report it. 8.70

Given CS(=O)(=O)c1cccc(N2CCN(Cc3ccc(OC(F)(F)F)cc3)[C@@H](c3ccccc3)C2)c1 (single isomer, unassigned) , respond with its pKi. 6.95

Please supply the value of reported pKi for the item CC(F)(F)[C@H]1CC[C@@H](CN2CCN(c3cccc(S(C)(=O)=O)c3)C[C@@H]2c2ccccc2)CC1 (single isomer, unassigned) 5.87

// Input: `Cc1ccc(N2CCN(c3cccc(S(C)(=O)=O)c3)C[C@H]2C(C)C)nc1C1CC1` . Output its pKi only. 7.85

Tell me measured pKi for Cc1ccc(CN2CCN(c3cccc(S(C)(=O)=O)c3)C[C@@H]2c2ccccc2)cc1 (single isomer, unassigned) please. 7.20

In one line, give reported pKi of the entry CC(C)[C@H]1CN(c2cccc(S(C)(=O)=O)c2)CCN1CC1CCCOC1 (some centres unmarked) . 5.81

Supply pKi value. Item: `CCOC(=O)CN(C)C(=O)c1cnc(N2CCN(c3ccc(F)c(S(C)(=O)=O)c3)C[C@H]2C(C)C)nc1C(F)(F)F` 6.71

Respond only with pKi recorded for `CC(C)[C@@H]1CN(c2ccc(F)c(S(C)(=O)=O)c2)CCN1c1ncc(C(=O)N2CCOCC2)c(C(F)(F)F)n1` 6.51

Given CC(O)c1cnc(N2CCN(c3ccc(F)c(S(C)(=O)=O)c3)C[C@H]2C(C)C)nc1C(F)(F)F (mixture of isomers) , respond with its pKi. 7.64

Read off the recorded pKi for `CC(C)[C@@H]1CN(c2ccc(F)c(S(C)(=O)=O)c2Cl)CCN1c1ncc(Cl)c(C2CC2)n1` 6.76

Note down pKi recorded for NS(=O)(=O)c1cccc(N2CCN(C[C@H]3CC[C@H](C(F)F)CC3)[C@@H](c3ccccc3)C2)c1 (single isomer, unassigned) 6.76

Report pKi, nothing else, for this molecule: `CC(C)[C@H]1CN(c2cccc(S(C)(=O)=O)c2)CCN1Cc1ccc(C(F)(F)F)nc1` 6.79

Fill in pKi for record `CC(C)[C@@H]1CN(c2ccc(F)c(S(C)(=O)=O)c2)CCN1c1nc2ncccc2s1` 7.41

Check the records and state pKi for `CC(C)(O)c1cc(CN2CCN(c3cccc(S(C)(=O)=O)c3)C[C@H]2c2ccccc2)ccc1C(F)(F)F` 5.83

Indicate its recorded pKi; the molecule in question is `CC(C)[C@@H]1CN(c2ccc(F)c(S(C)(=O)=O)c2)CCN1c1ncc(CNS(C)(=O)=O)c(C(F)(F)F)n1` 7.40

----------
As shown below, each of these compounds has a reported EC50 value.
Biological target: Gal4 DNA binding domain fused to the LBD of LXRα in HEK293 cells (Homo sapiens (Human), UniProt Q13133)
Sequence (Q13133 209-447): as above
Experiment: LXR luciferase transcriptional reporter gene assay, agonist mode, LXRα
Assay type: cell-based
Details: Biological Test Example 2, agonist mode; read-out: Cell LXRα EC50
Enter your answer as a number in µM; do not include the unit.

Example compounds with recorded EC50:
compound	EC50 [µM]
CO[C@]1(C(F)(F)F)CC[C@@H](CN2CCN(c3ccc(CO)c(S(C)(=O)=O)c3)C[C@@H]2C(C)C)CC1 (single isomer, unassigned) [Cpd No 48-79]	0.006
CC(=O)NCc1ccc(N2CCN(c3nccc(C(F)(F)F)n3)[C@H](C(C)C)C2)cc1S(C)(=O)=O [Cpd No 54-1]	2.2

Now look at this entry.
Output measured EC50 for this item: NS(=O)(=O)c1cccc(N2CCN(CC3CCN(CC(F)(F)F)CC3)[C@@H](c3ccccc3)C2)c1 (single isomer, unassigned) [48-81] 1.96

----------
Molecular target: Gal4 DNA binding domain fused to the LBD of LXRβ in HEK293 cells (Homo sapiens (Human))
Sequence (P55055 222-460 limits assumed): as the sequence (P55055 222-460 limits assumed) above
Test: cell-based
recorded-metric: Cell LXRβ efficacy

// below: answered molecules
molecule	Cell LXRβ efficacy
CC(C)c1ccc(CN2CCN(c3cccc(S(C)(=O)=O)c3)C[C@@H]2c2ccccc2)cc1	1358 (18) %
CC(C)[C@H]1CN(c2cccc(S(C)(=O)=O)c2)CCN1C[C@@H]1CC[C@@H](C(F)(F)F)OC1 (single isomer, unassigned)	132 (76) %
Cc1cnc(N2CCN(c3ccc(F)c(S(C)(=O)=O)c3)C[C@H]2C(C)C)nc1C(F)(F)F	11 (96) %
CC(C)[C@H]1CN(c2cccc(S(C)(=O)=O)c2)CCN1C[C@@H]1CC[C@H](C(F)(F)F)OC1 (single isomer, unassigned)	36 (93) %

Give the reported value of Cell LXRβ efficacy for this record: `CS(=O)(=O)c1cccc(N2CCN(CC3CCN(CC(F)(F)F)CC3)[C@H](c3ccccc3Cl)C2)c1` 4014 (16) %
